These entries and their values trace back to ChEMBL document CHEMBL1140358.

Measured EC50 of individual entries
target: Cannabinoid receptor 1 (Rattus norvegicus, UniProt P20272); assay: Effective concentration for stimulation of [35S]GTP-gamma-S binding at CB1 receptor in presence of 10 uM WIN-55212-2
Sequence (P20272 whole entry): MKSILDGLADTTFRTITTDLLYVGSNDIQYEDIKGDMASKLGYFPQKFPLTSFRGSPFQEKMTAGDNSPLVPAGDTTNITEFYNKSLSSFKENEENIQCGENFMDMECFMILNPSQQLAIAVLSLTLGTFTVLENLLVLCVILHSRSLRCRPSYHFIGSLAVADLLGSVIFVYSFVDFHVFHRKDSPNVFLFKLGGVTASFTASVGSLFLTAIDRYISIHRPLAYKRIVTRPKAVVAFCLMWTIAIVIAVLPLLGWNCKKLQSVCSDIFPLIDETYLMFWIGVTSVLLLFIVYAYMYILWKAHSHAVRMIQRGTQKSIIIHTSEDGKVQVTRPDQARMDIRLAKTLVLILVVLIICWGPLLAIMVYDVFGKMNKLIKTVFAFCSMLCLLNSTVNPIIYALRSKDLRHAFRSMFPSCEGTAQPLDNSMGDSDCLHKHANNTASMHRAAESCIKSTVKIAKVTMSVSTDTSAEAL
The reply should contain only the number, in nM.

Which EC50 value is on record for "CCCCCn1cc(C(=O)Cc2ccccc2C)c2ccccc21" ?
29

Next compound: "CCCCCn1cc(C(=O)Cc2cccc(OC)c2)c2ccccc21"
29.3

* * *

For reference, pKi measured on Cannabinoid receptor 1 (Rattus norvegicus, UniProt P20272):
# reply with the number alone; pKi is -log10 of concentration in mol/L

Observe how each entry below is paired with its result.
molecule smiles | observed
CCCCCn1c(C)c(C(=O)Cc2ccc(Cl)cc2)c2ccccc21 | 5.80
CCCCCn1cc(C(=O)Cc2ccc(Cl)cc2)c2ccccc21 | 6.41
CCCCCn1cc(C(=O)Cc2ccccc2OC)c2ccccc21 | 7.96
CCCCCn1cc(C(=O)Cc2cccc(OC)c2)c2ccccc21 | 7.77
CCCCCn1cc(C(=O)Cc2ccccc2Br)c2ccccc21 | 8.08

Kindly consider the entry below.
Tell me the measured pKi of "CCCCCn1c(C)c(C(=O)Cc2ccccc2)c2ccccc21" , please.
6.91

* * *

molecular target: Cannabinoid receptor 2 (Homo sapiens)
Sequence (P34972 whole entry): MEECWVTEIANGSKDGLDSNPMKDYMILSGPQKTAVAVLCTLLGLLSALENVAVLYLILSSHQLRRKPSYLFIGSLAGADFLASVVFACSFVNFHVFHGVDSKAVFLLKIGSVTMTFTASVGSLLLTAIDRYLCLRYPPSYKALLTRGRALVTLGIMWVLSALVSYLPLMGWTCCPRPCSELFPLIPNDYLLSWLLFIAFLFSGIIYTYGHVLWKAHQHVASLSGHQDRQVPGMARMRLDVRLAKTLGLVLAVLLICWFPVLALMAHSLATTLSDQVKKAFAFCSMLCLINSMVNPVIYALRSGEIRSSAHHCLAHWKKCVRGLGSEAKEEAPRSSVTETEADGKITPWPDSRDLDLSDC
In this section, each of the compounds is paired with its reported Ki.
Express your answer in µM, writing the number without its unit.

molecule smiles | Ki, µM
CCCCCn1cc(C(=O)Cc2ccccc2OC)c2ccccc21 | 0.033
CCCCCn1cc(C(=O)Cc2ccc(F)cc2)c2ccccc21 | 0.365
CCCCCn1c(C)c(C(=O)Cc2ccc(C)cc2)c2ccccc21 | 1.35

What Ki value was documented for this compound, "CCCCCn1cc(C(=O)Cc2cccc(OC)c2)c2ccccc21" ?
0.089

* * *

experiment: Ratio of the binding affinity towards CB1 receptor to that of CB2 receptor
Label No if Ratio falls below 0.4; label Yes in every other case.

molecule smiles | group
CCCCCn1c(C)c(C(=O)Cc2ccccc2Cl)c2ccccc21 | Yes

Decide: Ratio of "CCCCCn1c(C)c(C(=O)Cc2cccc(F)c2)c2ccccc21" >= 0.4?
Yes

# iterate: "CCCCCn1c(C)c(C(=O)Cc2ccccc2OC)c2ccccc21"
No

Similarly, "CCCCCn1c(C)c(C(=O)Cc2ccccc2Br)c2ccccc21" ?
Yes

Now try "CCCCCn1c(C)c(C(=O)Cc2ccc(C)cc2)c2ccccc21" .
Yes

# iterate: "CCCCCn1c(C)c(C(=O)Cc2ccccc2C)c2ccccc21"
Yes

Also check "CCCCCn1cc(C(=O)Cc2cccc(Cl)c2)c2ccccc21"
No

Query "CCCCCn1c(C)c(C(=O)Cc2ccc(Cl)cc2)c2ccccc21" next
Yes

Same question for "CCCCCn1cc(C(=O)Cc2ccccc2C)c2ccccc21" please.
No

Now the compound "CCCCCn1c(C)c(C(=O)Cc2ccccc2F)c2ccccc21"
Yes

Queued: "CCCCCn1cc(C(=O)Cc2ccc(C)cc2)c2ccccc21"
No
